Tested on: ACHN renal
method-notes: NCI-60 one-dose screen, 48 h (100 = growth as untreated, 0 = no growth, -100 = all killed)
assay-setup: 10 µM unless noted
The panel holds about 83,000 compounds, 20% with a hit somewhere; the sample as a whole holds those more often.
Label NO if growth falls below 60%; label YES in every other case.

compound | class-name
COc1cc(C(=O)OCCCCCCCCCCC[P+](c2ccccc2)(c2ccccc2)c2ccccc2)ccc1O | NO
O=C1CCCCN1CCCCC#Cc1ccccc1C#Cc1ccc([N+](=O)[O-])cc1 | NO
Cc1nc2scc(-c3ccccc3)n2c(=O)c1CCO | YES
COc1cc2c3c(c(=O)oc2cc1OS(=O)(=O)c1ccc(C(F)(F)F)cc1)CCCCC3 | YES
O=C(CN1CCOCC1)Nc1ccc(-c2nc3ccccc3s2)cc1 | YES
O=C1NCC(c2cc3ccccc3[nH]c2=O)Nc2ccccc21 (stereo not given) | YES
Cc1cccc(NC(=O)c2sc3nc4c(cc3c2N)CCCC4)c1 | NO
COc1ccc(C2=CC(c3ccc(Oc4ccnc5cc(Cl)ccc45)c(OC)c3)c3c(nc(OC)[nH]c3=O)N2)cc1 (stereo not given) | NO
CCSc1nnc(NC(=O)Cc2ccc(Cl)cc2)s1 | YES
Cc1oc2nc[nH]c(=O)c2c1C(=O)/C=C/c1ccc(Cl)cc1 | NO
Nc1cccc2c1CN(C1CCC(=O)NC1=O)C2=O (stereo not given) | YES
COc1cccc(C2CC(=O)Nc3c2c(C)nn3-c2nc3ccccc3[nH]2)c1OC (stereo not given) | NO
CCN1C(=O)/C(=c2\sc3n(c2=O)C2C(NN=3)N(CC)C(=S)N2CC)c2ccccc21 (stereo not given) | YES
CN(C)C/C=C/C(=O)Nc1cc2c(Nc3cccc(Cl)c3F)ncnc2cc1OCCOC(F)F | NO
CSc1ccccc1C#C/C=C\C#Cc1ccccc1N1CCCCC1=O | YES
CC1=CNNc2c3ncnc-3ncn21 | YES
CCOC(=O)/C=C\C(=O)NC(N)=O | YES
COc1cc(Br)c(OC)cc1Br | YES
CN(C)CCCNC(=O)C(c1ccccc1)c1ccccc1 | YES
NC(CC(N)C(=O)O)C(=O)O (stereo not given) | YES
